test: gradient 5% acetonitrile 3 min, to 50% in 2 min, to 85% in 15 min, held 3 min, 100 µL/min; conditions: column: Zorbax Extend-C18 2.1 x 50 mm; eluents: water / acetonitrile, 0.1% formic acid
reported_endpoint: RP-LC retention time

CC1CCCC(NC(=O)Cn2cnc3onc(-c4ccc(Cl)cc4)c3c2=O)C1C (centres undefined)	1100 s
Cc1cccc2nnc(N3CCCN(C(=O)c4ccccc4Cl)CC3)n12	600 s
Cc1cccc(Cn2nc3n(Cc4ccc(F)cc4)c(=O)c4nn(C)cc4n3c2=O)c1	940 s
Cc1ccc(-c2nc(-c3ccc4c(c3)nnn4CCN(C)C)no2)cc1F	708 s
Cc1ccnc(NS(=O)(=O)c2ccc(NC(=O)c3ccc([N+](=O)[O-])s3)cc2)n1	699 s
CN1CCCCCCN(C(=O)C2(c3ccccc3)CC2)[C@H]2CCC[C@H]2C1=O	958 s
Cc1cc(=O)n(CC(=O)Nc2ccc3c(c2)OCO3)c(-c2ccc(F)cc2)n1	974 s
COCCN1C(=O)c2ccccc2C(C(=O)Nc2ccc(NC(C)=O)cc2)C12CCCCC2 (centres undefined)	706 s
Cc1ccc(C)c(-c2csc(NC(=O)c3sc(-c4ccccc4)nc3C)n2)c1	1350 s
O=C(NC1CC1)C1CCCN(C(=O)c2ccccc2F)C1 (centres undefined)	634 s
CC1=C(C(=O)N2CCOCC2)C(c2cccc(Br)c2)C2=C(CCCC2=O)N1 (centres undefined)	664 s
CC(C)NC(=O)N1CCCC(c2cccc(C(=O)NCCCN3CCCCC3)c2)C1 (centres undefined)	623 s
COCCN1C(=O)CCc2cc(NS(=O)(=O)c3cc(Cl)ccc3OC)ccc21	803 s
COc1ccc(-c2noc(-c3ncn4c3COC(c3ccc(F)cc3)C4)n2)cc1OC (centres undefined)	958 s
CCn1cnc(S(=O)(=O)N2CCCC(C(=O)NCc3ccc(F)cc3)C2)c1 (centres undefined)	712 s
COc1cccc(-n2cc(C(=O)Oc3cccnc3)c3ccccc3c2=O)c1	926 s
CCCN1CCN(CCCNC(=O)c2c(N3CCCC3=O)c3cc(F)ccc3n2CC)CC1	602 s
CCN1C(=O)CN(C(=O)c2cccs2)CC12CCOCC2	631 s
COc1ccc2cc(C(=O)N3CCC(CC(=O)NC4CC4)CC3)[nH]c2c1	690 s
